Sourced from PubChem BioAssay AID1963444

test system: HSSY-II complex spheroid growth, percent test/control; test: Anticancer human tumor HSSY-II cell line growth inhibition [Asc]; details: second compound 1 µM; first compound 0.03 µM; stronger effect = lower value;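 also: spheroids exposed to drug for 7 days before reading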
RESULT_TYPE: viability, T/C

>>> observed_result("NC(=O)C(=Cn1cnc(-c2cc(C(F)(F)F)cc(C(F)(F)F)c2)n1)c1cncnc1 + Cc1c(S(C)(=O)=O)c(-c2cc(F)cc(N3CCN(c4ccc(NS(=O)(=O)c5ccc(NC(CCN6CCC(C(=O)OCCCP(=O)(O)O)CC6)CSc6ccccc6)c(S(=O)(=O)C(F)(F)F)c5)cc4)CC3)c2)c(-c2ccc(Cl)cc2)n1C(C)C")
"30%"
>>> observed_result("NC(=O)C(=Cn1cnc(-c2cc(C(F)(F)F)cc(C(F)(F)F)c2)n1)c1cncnc1 + CNC(C)C(=O)NC1CN(S(=O)(=O)c2cccc(S(=O)(=O)N3CCC4CCC(C(=O)NC(c5ccccc5)c5ccccc5)N4C(=O)C(NC(=O)C(C)NC)C3)c2)CCC2CCC(C(=O)NC(c3ccccc3)c3ccccc3)N2C1=O")
"29.9%"
>>> observed_result("Cc1nc(N2CCC3(CC2)COC(C)C3N)c(CO)nc1Sc1ccnc(N)c1Cl (centres undefined) + CNC(C)C(=O)NC1CN(S(=O)(=O)c2cccc(S(=O)(=O)N3CCC4CCC(C(=O)NC(c5ccccc5)c5ccccc5)N4C(=O)C(NC(=O)C(C)NC)C3)c2)CCC2CCC(C(=O)NC(c3ccccc3)c3ccccc3)N2C1=O")
"92.8%"
>>> observed_result("CCN1C(C(=O)NC23CCC(C(=O)O)(CC2)CC3)C(c2cccc(Cl)c2F)C2(C(=O)Nc3cc(Cl)ccc32)C12CCCCC2 (centres undefined) + Cc1c(S(C)(=O)=O)c(-c2cc(F)cc(N3CCN(c4ccc(NS(=O)(=O)c5ccc(NC(CCN6CCC(C(=O)OCCCP(=O)(O)O)CC6)CSc6ccccc6)c(S(=O)(=O)C(F)(F)F)c5)cc4)CC3)c2)c(-c2ccc(Cl)cc2)n1C(C)C")
"84.6%"

----------
tested on: HSSY-II complex spheroid growth, percent test/control; assay: Anticancer human tumor HSSY-II cell line growth inhibition [Asc]; settings: second compound 0.316 µM; first compound 1 µM; stronger effect = lower value;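 also: spheroids exposed to drug for 7 days before reading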
We label by threshold. Values of viability, T/C strictly beneath 50% are Y. Values of 50% and up are N.

>>> answer_label("COc1c(OCCCN2CCOCC2)ccc2c3n(c(=NC(=O)c4cnc(N)nc4)nc12)CCN3 + Cc1c(S(C)(=O)=O)c(-c2cc(F)cc(N3CCN(c4ccc(NS(=O)(=O)c5ccc(NC(CCN6CCC(C(=O)OCCCP(=O)(O)O)CC6)CSc6ccccc6)c(S(=O)(=O)C(F)(F)F)c5)cc4)CC3)c2)c(-c2ccc(Cl)cc2)n1C(C)C")
"Y"
>>> answer_label("C#Cc1c(F)ccc2cc(O)cc(-c3ncc4c(N5CC6CCC(C5)N6)nc(OCC56CCCN5CC(F)C6)nc4c3F)c12 (configuration not stated) + CNC(C)C(=O)NC1CN(S(=O)(=O)c2cccc(S(=O)(=O)N3CCC4CCC(C(=O)NC(c5ccccc5)c5ccccc5)N4C(=O)C(NC(=O)C(C)NC)C3)c2)CCC2CCC(C(=O)NC(c3ccccc3)c3ccccc3)N2C1=O")
"N"
>>> answer_label("CCN1CCN(Cc2ccc(Nc3ncc(F)c(-c4cc(F)c5nc(C)n(C(C)C)c5c4)n3)nc2)CC1 + CNC(C)C(=O)NC1CN(S(=O)(=O)c2cccc(S(=O)(=O)N3CCC4CCC(C(=O)NC(c5ccccc5)c5ccccc5)N4C(=O)C(NC(=O)C(C)NC)C3)c2)CCC2CCC(C(=O)NC(c3ccccc3)c3ccccc3)N2C1=O")
"Y"
>>> answer_label("O=C(c1cc(Cc2n[nH]c(=O)c3ccccc23)ccc1F)N1CCN(C(=O)C2CC2)CC1 + Cc1c(S(C)(=O)=O)c(-c2cc(F)cc(N3CCN(c4ccc(NS(=O)(=O)c5ccc(NC(CCN6CCC(C(=O)OCCCP(=O)(O)O)CC6)CSc6ccccc6)c(S(=O)(=O)C(F)(F)F)c5)cc4)CC3)c2)c(-c2ccc(Cl)cc2)n1C(C)C")
"N"
>>> answer_label("COc1c(OCCCN2CCOCC2)ccc2c3n(c(=NC(=O)c4cnc(N)nc4)nc12)CCN3 + CNC(C)C(=O)NC1CN(S(=O)(=O)c2cccc(S(=O)(=O)N3CCC4CCC(C(=O)NC(c5ccccc5)c5ccccc5)N4C(=O)C(NC(=O)C(C)NC)C3)c2)CCC2CCC(C(=O)NC(c3ccccc3)c3ccccc3)N2C1=O")
"Y"
>>> answer_label("C=C(F)C(=O)N1CCN(c2nc(OCC3CCCN3C)nc3c2CCN(c2cccc4cccc(Cl)c24)C3)CC1CC#N (configuration not stated) + CNC(C)C(=O)NC1CN(S(=O)(=O)c2cccc(S(=O)(=O)N3CCC4CCC(C(=O)NC(c5ccccc5)c5ccccc5)N4C(=O)C(NC(=O)C(C)NC)C3)c2)CCC2CCC(C(=O)NC(c3ccccc3)c3ccccc3)N2C1=O")
"Y"
>>> answer_label("C=CC(=O)N1CCN(c2nc(=O)n(-c3c(C)ccnc3C(C)C)c3nc(-c4c(O)cccc4F)c(F)cc23)C(C)C1 (configuration not stated) + CNC(C)C(=O)NC1CN(S(=O)(=O)c2cccc(S(=O)(=O)N3CCC4CCC(C(=O)NC(c5ccccc5)c5ccccc5)N4C(=O)C(NC(=O)C(C)NC)C3)c2)CCC2CCC(C(=O)NC(c3ccccc3)c3ccccc3)N2C1=O")
"N"
